IC50, inhibition of IFN-γ release, KG-1 cells, Cyno IL-18 values for the binders below.
- system-under-test: T1, Recombinant cynomolgus IL-18 (cynomolgus monkey, UniProt Q14116 37-193 (human entry))
- T1 chain: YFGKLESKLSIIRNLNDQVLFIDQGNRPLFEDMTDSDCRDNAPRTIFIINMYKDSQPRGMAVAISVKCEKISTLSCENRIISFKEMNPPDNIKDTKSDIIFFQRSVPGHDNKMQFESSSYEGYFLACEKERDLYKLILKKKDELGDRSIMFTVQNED
- protocol-notes: cell-based or functional assay
reported-metric: IC50, inhibition of IFN-γ release, KG-1 cells, Cyno IL-18 (nM)

binder | reported-result
MOR10502 (antibody, human IgG1, lambda, L234A L235A, V domains shown, also called MOR010502) VH: EVQLQESGPGLVKPGETLSLTCTVSGGSISTGSYYWNWIRQAPGKGLEWIGEIHGHGFTFYNPSLKSRVTISVDTSKNQFSLKLSSVTAADTAVYYCARTTRYWMSHILAYGMDYWGQGTLVTVSS VL: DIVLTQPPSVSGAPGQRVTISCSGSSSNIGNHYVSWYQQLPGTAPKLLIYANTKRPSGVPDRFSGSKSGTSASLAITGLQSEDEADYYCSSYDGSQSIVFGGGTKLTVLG | 0.2
MOR09441 (antibody, human IgG1, lambda, L234A L235A, V domains shown, also called MOR9441) VH: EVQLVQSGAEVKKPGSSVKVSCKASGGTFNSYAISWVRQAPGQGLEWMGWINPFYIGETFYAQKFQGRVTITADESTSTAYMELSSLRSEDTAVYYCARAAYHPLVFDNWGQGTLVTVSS VL: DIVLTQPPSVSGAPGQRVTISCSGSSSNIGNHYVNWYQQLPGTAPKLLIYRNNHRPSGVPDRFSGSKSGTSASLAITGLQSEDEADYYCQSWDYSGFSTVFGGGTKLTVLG | 16.4
MOR10497 (antibody, human IgG1, lambda, L234A L235A, V domains shown, also called MOR010497) VH: EVQLQESGPGLVKPGETLSLTCTVSGGSISTGSYYWNWIRQAPGKGLEWIGEIQSPGYTFYNPSLKSRVTISVDTSKNQFSLKLSSVTAADTAVYYCARTTRYWMSHILAYGMDYWGQGTLVTVSS VL: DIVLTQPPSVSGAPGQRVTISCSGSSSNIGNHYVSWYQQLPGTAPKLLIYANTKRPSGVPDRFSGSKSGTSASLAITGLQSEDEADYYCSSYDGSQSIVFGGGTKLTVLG | 0.3
Recombinant human IL-18 Binding Protein-IgG1 Fc (Fc fusion, UniProt O95998 31-194, looked up, not shown: a dimerising Fc or GST) TPVSQTTTAATASVRSTKDPCPSQPPVFPAAKQCPALEVTWPEVEVPLNGTLSLSCVACSRFPNFSILYWLGNGSFIEHLPGRLWEGSTSRERGSTGTQLCKALVLEQLTPALHSTNFSCVLVDPEQVVQRHVVLAQLWAGLRATLPPTQEALPSSHSSPQQQG | 0.4
